The origin of these recorded values is patent US20260216176A1.

PROCEDURE SUMMARY: Plasma pharmacokinetics in phase I clinical trial NCT04836195 (oral daily dose)
Format: in vivo, human
EXPERIMENTAL CONTEXT: human, plasma, oral, 40 mg, plasma; 40 mg; Cycle 1 D1; read-out: t½ (mean, SD) (converted)

RECORD SMILES | half-life / min
Cc1c(N[S+](=O)(O)c2c(Cl)cc(-c3ccnc(N4CCNCC4)c3)cc2Cl)c(CC(C)C)nn1C | 552

----------
PROCEDURE SUMMARY: Plasma, brain and CSF pharmacokinetics and brain tissue accumulation in mice (LC-MS/MS)
Format: in vivo, male C57BL/6 mice
EXPERIMENTAL CONTEXT: male, C57BL/6, mouse, brain, oral, 5 mg/kg, 5 mg/kg oral; time point 0.50 h; read-out: Mean Brain Conc.

COMPOUND | UNIT ANNOTATION | concentration at 0.5 h
Cc1c(N[S+](=O)(O)c2c(Cl)cc(-c3ccnc(N4CCNCC4)c3)cc2Cl)c(CC(C)C)nn1C [PCLX-001] | nM | 123
